Let's look at some binders and their measured koff.
- Experimental target: T1, factor H binding protein (fHbp) variant 2.16 (Neisseria meningitidis 961-5945, UniProt Q6VS19, strain)
- T1 construct: also called fHbp v2.16; fHbp v2; source: E. coli BL21(DE3), purified (Ni-NTA; SEC when necessary)
- Test protocol: SPR
- Condition description: both partners purified

{"columns": ["Binder", "koff"],
 "data": [
  ["human anti-fHbp mAb 1E10 (antibody, V domains shown, source: Expi293, transient transfection, purified (protein G Sepharose)) VH: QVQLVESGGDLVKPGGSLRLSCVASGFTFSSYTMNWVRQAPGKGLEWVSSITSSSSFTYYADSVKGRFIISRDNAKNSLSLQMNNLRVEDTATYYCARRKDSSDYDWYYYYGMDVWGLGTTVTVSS VL: QSVVTQPPSVSAAPGQKVTISCSGSSSNIGDNYMSWYQQIPGTAPKLLIFDNDQRPSGIPDRFSASKSGTSATLDITGFQTGDEADYYCGTWDSGLSAPVFGGGTKLTVL", "0.00079 s⁻¹"],
  ["human anti-fHbp mAb 3G7 (antibody, V domains shown, source: Expi293, transient transfection, purified (protein G Sepharose)) VH: EVQLLQSGGGLVKPGGSLRLSCAASGFPFSSYYMSWIRQAPGKGLEWVSDINNSGNVKEYADFVKGRLTISRDNVKNSMYLHMNSLRVEDTAVYYCARNRGRFDVWGQGTLVTVSA VL: EIVLTQSPGTLSLSPGETATLSCRASQMISSPFLAWYQQRRGQAPRLLIYGASTRATDTPDRFRGSGSGTDFILTISRLEPEDFAVYYCQYYDDSPFTFGQGTKLEIK", "3.89e-05 s⁻¹"],
  ["human anti-fHbp mAb 3F1 (antibody, V domains shown, source: Expi293, transient transfection, purified (protein G Sepharose)) VH: EVHLVESGGGLVKPGGSLRLSCAASGFTFSSYTMNWVRQAPGKGLEWVSSISSSSGYIYYADSLKGRFTISRDNAKNSLFLQMNSLRAEDTAVYFCARDKVLPAPPGFYGLDVWGPGTTVTVSS VL: QSVVTQPPSVSAAPGQKVTISCSGSSSNIEDNFVSWYQQLPGTAPKLLIYDNNQRPSGIPDRFSGSKSGTSATLGITGLQTGDEADYYCATWDNSLSARVFGGGTKLTVL", "0.00478 s⁻¹"]
]}
